Measured values drawn from PubChem BioAssay (NCI) for this set.

Give measured TGI for each item. Keep answers brief.
Test system: RXF-631 renal
assay explanation: NCI tumour cell line growth inhibition, 48 h

smiles repr | assayed system | recorded measurement
NC(=S)N/N=C(/CC(=O)c1ccc([N+](=O)[O-])cc1)C(=O)Nc1ncc([N+](=O)[O-])s1 | RXF-631 renal | > 100 µM
CCSC1(SCC)CCN(C=NC(C)(C)C)C1 | RXF-631 renal | > 100 µM
OC(c1ccccc1)(c1ccccc1)c1ccccn1 | RXF-631 renal | > 100 µM
CCOC(=O)C1=C(Nc2ccccc2)OC/C1=N\NC(=O)Cc1ccccc1 | RXF-631 renal | > 50 µM
Cc1cc2c3ccccc3n(C)c2c2c1C(=O)c1ccccc1C2=O | RXF-631 renal | 98.5 µM

Provide TGI values for the following items, in order.
1. CCCCCCCCCCCCCCCCOC(=O)C(C(=O)OCCCCCCCCCCCCCCCC)[N+](C)(C)CCOC(C)=O
2. Cc1ccc2nc3c(Cl)cc(=O)cc-3sc2c1
3. O=C(NCCCN1CCN(CCCNC(=O)c2cnc3ccccc3n2)CC1)c1cnc2ccccc2n1
4. CC1=C(C(=O)Nc2cccc(C(F)(F)F)c2)C(c2ccc(O)cc2)C(C(=O)Nc2cccc(C(F)(F)F)c2)=C(C)N1
5. Nc1nnc2nc(CC(=O)/C=C/c3ccccc3)c(=O)[nH]n12

Solution:
1. 30.5 µM
2. > 100 µM
3. > 100 µM
4. 41.6 µM
5. > 100 µM
